Recorded values, source ChEMBL document CHEMBL3507680.

Form field: cytotoxicity at 70.5 h (one value per entry).
- method-notes: Human HepG2 cell viability assay in 384 well format
- Format: toxicity, cell-based
- Parameters: dose 125 nL, time 70.5 hour; concentration not given beside the values
- test-parameters: HepG2 cells, read-out: Inhibition
parameter-measured: cytotoxicity at 70.5 h (%)

{"columns": ["molecule", "parameter-measured", "quantitative-readout"],
 "data": [
  ["CCC(O)CN(Cc1cccc(C(=O)N(C)C)c1)c1ccccc1 (configuration not stated)", "cytotoxicity at 70.5 h", -1.87],
  ["COC(=O)c1cccc(NC(=O)CCn2nc(-c3cccs3)oc2=O)c1", "cytotoxicity at 70.5 h", 0.767],
  ["COCCN(C(=O)c1c[nH]c2ncccc12)C1CCCC1", "cytotoxicity at 70.5 h", 0.976],
  ["NC(=O)c1ccc(CN2CCC(N3CCCCC3)CC2)cc1", "cytotoxicity at 70.5 h", -1.57],
  ["COc1cc(CCC(=O)NC(C)(C)C)ccc1OCC(F)(F)F", "cytotoxicity at 70.5 h", -9.72],
  ["Cc1cnc(CN2CCCC(c3cc(C)[nH]n3)C2)cn1 (configuration not stated)", "cytotoxicity at 70.5 h", 15.7],
  ["Cc1cccc(CNC(Cn2cncn2)c2ccccc2)c1C (configuration not stated)", "cytotoxicity at 70.5 h", 1.21],
  ["Cc1sc(CN)nc1-c1ccccc1", "cytotoxicity at 70.5 h", -3.17],
  ["COc1ccc(CN2CCCC2)cc1Oc1ccc2c(c1)CC(CN)O2 (configuration not stated)", "cytotoxicity at 70.5 h", -11.3],
  ["CCn1c(NCc2ccccn2)nc2c(C)nn(C)c2c1=O", "cytotoxicity at 70.5 h", -3.41],
  ["NC(=O)N1CCc2ncc(CNC(=O)CC3CC3)n2CC1", "cytotoxicity at 70.5 h", 1.82],
  ["Cc1cc(C)c2c(N3CCCN(C(=O)C4CCC4)CC3)ncnc2n1", "cytotoxicity at 70.5 h", -6.75]
]}
